# System: KK-Ay male mice
# TEST_PROTOCOL: Blood sugar and blood triglyceride (TG) lowering test in KK-Ay mice, test compound mixed with powder food
# Type: in vivo
# MEASUREMENT_PARAMETERS: KK-Ay male mice; dose c.a. 30 mg/kg/day (footnote a) mixed with powder food for four days; plasma triglyceride 5th day; vs control group
Entries and their TG lowering ratio (%)
Kindly provide the numeric value in % only, without the unit symbol.

Below, 3 molecules whose answers are already recorded.
# MOLECULE_SMILES, TG lowering ratio (%)
data = [
    ("O=C1NC(=O)C(=Cc2ccc3cc(OCc4ccc(F)cc4)ccc3c2)S1", 24.4),
    ("O=C1NC(=O)C(=Cc2ccc3cc(OCc4ccccc4F)ccc3c2)S1", 38.8),
    ("O=C1NC(=O)C(=Cc2ccc3cc(OCc4ccccc4)ccc3c2)S1", 21.0),
]

Entry O=C1NC(=O)C(=Cc2ccc3cc(OCc4cccc(F)c4)ccc3c2)S1 ; TG lowering ratio (%) = 22.3
